- Tested on: field corn (Zea mays L., var. Dekalb 535, CORN)
- test: Greenhouse herbicide screen, post-emerge application, crop damage rating
- Assay type: in vivo
- condition_notes: POST emergent, 250 g ai/ha, 14 days after application, scale 0-100
outcome_measure: crop damage rating CORN
Output: the number by itself.

input: Any idea what its crop damage rating CORN is? The molecule is Cn1c(C(F)(F)F)cc(=O)n(-c2cc(C(=O)NNC(=O)OC(C)(C)C)c(Cl)cc2F)c1=O
output: 95

input: Item CC1CCCC(C)N1NC(=O)c1cc(-n2c(=O)cc(C(F)(F)F)n(C)c2=O)c(F)cc1Cl (centres unmarked) has what recorded crop damage rating CORN?
output: 100

input: Reported crop damage rating CORN, molecule CCOC(=O)NNC(=O)c1cc(-n2c(=O)cc(C(F)(F)F)n(C)c2=O)c(F)cc1Cl : ____
output: 100

input: Which crop damage rating CORN value is on record for CN(NC(=O)c1cc(-n2c(=O)cc(C(F)(F)F)n(C)c2=O)c(F)cc1Cl)c1ccccc1 ?
output: 100

input: I have this molecule here, Cn1c(C(F)(F)F)cc(=O)n(-c2cc(C(=O)NN3CCCC3)c(Cl)cc2F)c1=O , and I need its recorded crop damage rating CORN.
output: 95

input: Query: crop damage rating CORN; subject: CN1CCN(NC(=O)c2cc(-n3c(=O)cc(C(F)(F)F)n(C)c3=S)c(F)cc2Cl)CC1
output: 50

input: crop damage rating CORN for C#CCOC(=NN=C(C(C)(C)C)C(C)(C)C)c1cc(-n2c(=O)cc(C(F)(F)F)n(C)c2=O)c(F)cc1Cl ?
output: 15

input: Which crop damage rating CORN value is on record for CC(=O)OC(=NN(C)C)c1cc(-n2c(=O)cc(C(F)(F)F)n(C)c2=O)ccc1Cl ?
output: 90

input: Suppose we examine the molecule CC1CCCC(C)N1N=C(OC(=O)C(Cl)Cl)c1cc(-n2c(=O)cc(C(F)(F)F)n(C)c2=O)c(F)cc1Cl (centres unmarked) ; what crop damage rating CORN value has been reported?
output: 100

input: I'd like to know its crop damage rating CORN. The molecule in question is CC1CCCC(C)N1NC(=O)c1cc(-n2c(=O)cc(C(F)(F)F)n(C)c2=S)c(F)cc1Cl (centres unmarked)
output: 60

input: What crop damage rating CORN value was documented for this molecule, Cn1c(C(F)(F)F)cc(=O)n(-c2cc(C(=O)NN=C(c3ccccc3)c3ccccc3)c(Cl)cc2F)c1=O ?
output: 25

input: What value of crop damage rating CORN has been recorded for this entry: CN(C)NC(=O)c1cc(-n2c(=O)cc(C(F)(F)F)n(C)c2=O)ccc1Cl
output: 99

input: Which crop damage rating CORN value belongs to CC(=O)OC(=NN1C(C)CCCC1C)c1cc(-n2c(=O)cc(C(F)(F)F)n(C)c2=O)c(F)cc1Cl (centres unmarked) ?
output: 50

input: Give the measured crop damage rating CORN of Cn1c(C(F)(F)F)cc(=O)n(-c2cc(C(=O)NN(Cc3ccccc3)Cc3ccccc3)c(Cl)cc2F)c1=O .
output: 50

----------
Kindly state crop damage rating RICE for each of the entries shown.
- Tested on: upland rice (Oryza sp., var.Cocodrie, RICE)
- test: Greenhouse herbicide screen, post-emerge application, crop damage rating
- Type: in vivo
- condition_notes: POST emergent, 250 g ai/ha, 14 days after application, scale 0-100

input: Which value of crop damage rating RICE has been reported for CC1CCCC(C)N1NC(=O)c1cc(-n2c(=O)cc(C(F)(F)F)n(C)c2=O)c(F)cc1Cl (centres unmarked) in the records?
output: 98

input: // returns reported crop damage rating RICE for input CN(C)NC(=O)c1cc(-n2c(=O)cc(C(F)(F)F)n(C)c2=O)ccc1Cl
output: 65

input: Recorded crop damage rating RICE for C#CCOC(=NN=C(C(C)(C)C)C(C)(C)C)c1cc(-n2c(=O)cc(C(F)(F)F)n(C)c2=O)c(F)cc1Cl , please?
output: 0

input: Look up crop damage rating RICE: CC(=O)OC(=NN(C)C)c1cc(-n2c(=O)cc(C(F)(F)F)n(C)c2=O)ccc1Cl
output: 55

input: Consider the molecule Cn1c(C(F)(F)F)cc(=O)n(-c2cc(C(=O)NN=C(c3ccccc3)c3ccccc3)c(Cl)cc2F)c1=O and give its measured crop damage rating RICE.
output: 0

input: I'd like to know its crop damage rating RICE. The molecule in question is CC1CCCC(C)N1N=C(OC(=O)C(Cl)Cl)c1cc(-n2c(=O)cc(C(F)(F)F)n(C)c2=O)c(F)cc1Cl (centres unmarked)
output: 15

input: Please give the measured crop damage rating RICE for this molecule: Cn1c(C(F)(F)F)cc(=O)n(-c2cc(C(=O)NN(Cc3ccccc3)Cc3ccccc3)c(Cl)cc2F)c1=O
output: 10

input: # crop damage rating RICE lookup, item CN1CCN(NC(=O)c2cc(-n3c(=O)cc(C(F)(F)F)n(C)c3=S)c(F)cc2Cl)CC1
output: 0

input: Which crop damage rating RICE value belongs to Cn1c(C(F)(F)F)cc(=O)n(-c2cc(C(=O)NN3CCCC3)c(Cl)cc2F)c1=O ?
output: 65

input: Item Cn1c(C(F)(F)F)cc(=O)n(-c2cc(C(=O)NNC(=O)OC(C)(C)C)c(Cl)cc2F)c1=O has what recorded crop damage rating RICE?
output: 65

input: Suppose we examine the molecule CC(=O)OC(=NN1C(C)CCCC1C)c1cc(-n2c(=O)cc(C(F)(F)F)n(C)c2=O)c(F)cc1Cl (centres unmarked) ; what crop damage rating RICE value has been reported?
output: 0

input: Need crop damage rating RICE of CCOC(=O)NNC(=O)c1cc(-n2c(=O)cc(C(F)(F)F)n(C)c2=O)c(F)cc1Cl , thanks.
output: 85

input: Name the recorded crop damage rating RICE for CC1CCCC(C)N1NC(=O)c1cc(-n2c(=O)cc(C(F)(F)F)n(C)c2=S)c(F)cc1Cl (centres unmarked) .
output: 30

input: Bench note: what crop damage rating RICE did CN(NC(=O)c1cc(-n2c(=O)cc(C(F)(F)F)n(C)c2=O)c(F)cc1Cl)c1ccccc1 show?
output: 50
